Data provenance: patent US20260207704A1

System: DLD1 reporter
Test: reporter assay (DLD1 reporter assay)
Format: cell-based
Conditions: read-out: DLD1 4% Abs IC50; DLD1 4%
pIC50: −log10 of the molar value.
Provide the recorded pIC50 for the entries that follow.

Please review the entries below; each comes with its answer.
[[record]]
molecule = "CC(=O)N1CCC[C@]12CC=CCCCC1(CCCC=CCCCOC(=O)N3CC[C@@]4(C3)NC(=O)[C@H](CCCCNC(=O)CC[C@@H](C(=O)N[C@@H](CC(C)C)C(=O)N[C@@H](CO)C(N)=O)NC(=O)[C@H](Cc3csc5ccccc35)NC(=O)[C@H](Cc3ccccc3C(F)(F)F)NC4=O)NC(=O)[C@H](Cc3ccccc3)NC(=O)[C@H](C)NC(=O)C(C)(C)NC(=O)[C@H](Cc3cccc(C(=O)O)c3)NC(=O)[C@H](CC(=O)O)NC1=O)NC(=O)[C@H](CC(C)(C)C)NC(=O)[C@H](CC(N)=O)NC2=O (relative stereo) [I-144]"
experimentalendpoint = "pIC50"
testvalue = "5.30 to 6.00"

[[record]]
molecule = "CC(=O)N1CCC[C@]12CC=CCCCC1(CCCC=CCCCOC(=O)N3CC[C@@]4(C3)NC(=O)[C@H](CCCCNC(=O)CC[C@@H](C(=O)N[C@@H](C)C(N)=O)NC(=O)[C@H](Cc3csc5ccccc35)NC(=O)[C@H](Cc3ccccc3C(F)(F)F)NC4=O)NC(=O)[C@H](Cc3ccccc3)NC(=O)[C@H](C)NC(=O)C(C)(C)NC(=O)[C@H](CN(CC(=O)O)CC(F)(F)F)NC(=O)[C@H](CC(=O)O)NC1=O)NC(=O)[C@H](CC(C)(C)C)NC(=O)[C@H](CC(=O)O)NC2=O (single isomer, unassigned) [I-121]"
experimentalendpoint = "pIC50"
testvalue = "5.30 to 6.00"

[[record]]
molecule = "CC(=O)N1CCC[C@]12CC=CCCCC1(CCCC=CCCCOC(=O)N3CC[C@@]4(C3)NC(=O)[C@H](CCCCNC(=O)CC[C@@H](C(=O)N[C@@H](CC(C)C)C(=O)N[C@@H](CO)C(N)=O)NC(=O)[C@H](Cc3csc5ccccc35)NC(=O)[C@H](Cc3ccccc3C(F)(F)F)NC4=O)NC(=O)[C@H](Cc3ccccc3)NC(=O)[C@H](C)NC(=O)C3(CCCC3)NC(=O)[C@H](Cc3cccc(C(=O)O)c3)NC(=O)[C@H](CC(=O)O)NC1=O)NC(=O)[C@H](CC(C)(C)C)NC(=O)[C@H](CC(=O)O)NC2=O (relative stereo) [I-141]"
experimentalendpoint = "pIC50"
testvalue = "≥ 6.00"


Report pIC50 for every entry below.
1. CCCC[C@@H]1NC(=O)[C@H](Cc2cccc(C(=O)O)c2)NC(=O)[C@H](CC(=O)O)NC(=O)C2(CCCC=CCCCOC(=O)N3CC[C@@]4(C3)NC(=O)[C@H](CCCCNC(=O)CC[C@@H](C(=O)N[C@@H](C)C(N)=O)NC(=O)[C@H](Cc3csc5ccccc35)NC(=O)[C@H](Cc3ccsc3)NC4=O)NC(=O)[C@H](Cc3ccccc3)NC(=O)[C@H](C)NC1=O)CCCC=CC[C@]1(CCCN1C(C)=O)C(=O)N[C@@H](CC(=O)O)C(=O)N[C@@H](CC(C)(C)C)C(=O)N2 (relative stereo) [I-70]
2. CC(=O)N1CCC[C@]12CC=CCCCC1(CCCC=CCCCOC(=O)N3CC[C@@]4(C3)NC(=O)[C@H](CCCCn3cc(nn3)COC[C@@H](C(=O)N[C@@H](C)C(N)=O)NC(=O)[C@H](Cc3csc5ccccc35)NC(=O)[C@H](Cc3ccsc3)NC4=O)NC(=O)[C@H](Cc3ccccc3)NC(=O)[C@H](C)NC(=O)C(C)(C)NC(=O)[C@H](Cc3cccc(C(=O)O)c3)NC(=O)[C@H](CC(=O)O)NC1=O)NC(=O)[C@H](CC(C)(C)C)NC(=O)[C@H](CC(=O)O)NC2=O (relative stereo) [I-262]
3. CC(=O)N1CCC[C@]12CC=CCCCC1(CCCC=CCCCOC(=O)N3CC[C@@]4(C3)NC(=O)[C@H](CCCCNC(=O)CC[C@@H](C(=O)N[C@@H](CC(C)C)C(=O)N[C@@H](CO)C(N)=O)NC(=O)[C@H](Cc3csc5ccccc35)NC(=O)[C@H](Cc3ccccc3C(F)(F)F)NC4=O)NC(=O)[C@H](Cc3ccccc3)NC(=O)[C@H](C)NC(=O)[C@H](C)NC(=O)[C@H](Cc3cccc(C(=O)O)c3)NC(=O)[C@H](CC(=O)O)NC1=O)NC(=O)[C@H](CC(C)(C)C)NC(=O)[C@H](CC(N)=O)NC2=O (relative stereo) [I-142]
4. CC(=O)N1CCC[C@]12CC=CCCCC1(CCCC=CCCCOC(=O)N3CC[C@@]4(C3)NC(=O)[C@H](Cc3cn(nn3)CCCC[C@@H](C(N)=O)NC(=O)[C@H](Cc3csc5ccccc35)NC(=O)[C@H](Cc3ccsc3)NC4=O)NC(=O)[C@H](Cc3ccccc3)NC(=O)[C@H](C)NC(=O)[C@H](C)NC(=O)[C@H](Cc3cccc(C(=O)O)c3)NC(=O)[C@H](CC(=O)O)NC1=O)NC(=O)[C@H](CC(C)(C)C)NC(=O)[C@H](CC(=O)O)NC2=O (some centres unmarked) [I-24]

A:
1: ≥ 6.00; 2: ≥ 6.00; 3: < 5.30; 4: 5.30 to 6.00

The value of pIC50 recorded for CC(=O)N1CCC[C@]12CC=CCCCC1(CCCC=CCCCOC(=O)N3CC[C@@]4(C3)NC(=O)[C@H](CCCCNC(=O)CC[C@@H](C(=O)N[C@@H](C)C(N)=O)NC(=O)[C@H](Cc3csc5ccccc35)NC(=O)[C@H](Cc3ccsc3)NC4=O)NC(=O)[C@H](Cc3ccccc3)NC(=O)[C@H](C)NC(=O)C(C)(C)NC(=O)[C@H](Cc3cccc(C(=O)O)c3)NC(=O)[C@H](CC(=O)O)NC1=O)NC(=O)[C@H](CC(C)(C)C)NC(=O)[C@H]([C@H](C)O)NC2=O (relative stereo) [I-163] when tested on DLD1 reporter reads < 5.30
